These measurements were taken from patent US20070077617.

molecular target: fusion protein PRK
Sequence (chain, as listed by the source): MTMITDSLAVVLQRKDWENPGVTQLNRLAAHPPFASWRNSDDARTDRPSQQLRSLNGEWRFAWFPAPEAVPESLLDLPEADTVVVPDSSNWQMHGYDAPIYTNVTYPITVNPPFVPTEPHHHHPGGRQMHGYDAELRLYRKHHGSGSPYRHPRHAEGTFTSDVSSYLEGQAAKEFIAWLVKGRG
observable: relative cleavage efficiency (%)
Write the number in % without appending the unit.

Prompt: Entry under review: OmpT protease variant OmpT D97H (protein) STETLSFTPDNINADISLGTLSGKTKERVYLAEEGGRKVSQLDWKFNNAAIIKGAINWDLMPQISIGAAGWTTLGSRGGNMVDQDWMDSSNPGTWTHESRHPDTQLNYANEFDLNIKGWLLNEPNYRLGLMAGYQESRYSFTARGGSYIYSSEEGFRDDIGSFPNGERAIGYKQRFKMPYIGLTGSYRYEDFELGGTFKYSGWVESSDNDEHYDPGKRITYRSKVKDQNYYSVAVNAGYYVTPNAKVYVEGAWNRVTNKKGNTSLYDHNNNTSDYSKNGAGIENYNFITTAGLKYTF . Reported relative cleavage efficiency?
Response: 4.5
